# System Name: MavL42-435 (Legionella pneumophila, UniProt Q5ZSJ1)
# Sequence (Q5ZSJ1 42-435 limits assumed): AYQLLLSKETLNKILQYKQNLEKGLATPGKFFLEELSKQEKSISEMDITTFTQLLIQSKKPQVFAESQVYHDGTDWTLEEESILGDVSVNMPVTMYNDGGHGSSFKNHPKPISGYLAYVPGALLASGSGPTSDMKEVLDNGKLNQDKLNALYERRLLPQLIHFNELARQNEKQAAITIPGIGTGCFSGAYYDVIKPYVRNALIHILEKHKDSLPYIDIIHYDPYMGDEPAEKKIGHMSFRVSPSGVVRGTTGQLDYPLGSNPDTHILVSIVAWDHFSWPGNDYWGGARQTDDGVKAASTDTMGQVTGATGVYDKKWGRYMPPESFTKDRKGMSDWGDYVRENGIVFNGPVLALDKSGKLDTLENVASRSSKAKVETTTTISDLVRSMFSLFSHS
Measurement Label: pKd
Interpret pKd as the negative base-10 log of the concentration measured in mol/L.

Query: Request: pKd, test system MavL42-435 (Legionella pneumophila, UniProt Q5ZSJ1), entry Nc1ncnc2c1ncn2[C@@H]1O[C@H](COP(=O)(O)OP(=O)(O)OC[C@H]2OC(O)[C@H](O)[C@@H]2O)[C@@H](O)[C@H]1O (stereo partly shown) [ADPR]
Result: 4.59
